Exercise: state measured Kd for each of the binders provided.
- testTarget: recombinant bovine FcRn (bovine) (UniProt F6R592)
- Sequence (chain, as listed by the source, chain 1 of 2): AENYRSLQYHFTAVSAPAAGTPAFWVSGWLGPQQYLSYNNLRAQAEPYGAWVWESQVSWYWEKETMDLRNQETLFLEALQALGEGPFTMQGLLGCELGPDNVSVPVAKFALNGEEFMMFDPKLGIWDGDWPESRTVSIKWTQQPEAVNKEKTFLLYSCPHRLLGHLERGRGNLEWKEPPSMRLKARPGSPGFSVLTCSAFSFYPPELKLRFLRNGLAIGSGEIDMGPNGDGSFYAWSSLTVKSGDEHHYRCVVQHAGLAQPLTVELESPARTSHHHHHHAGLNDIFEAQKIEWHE
- Sequence (P01888 21-118, chain 2 of 2): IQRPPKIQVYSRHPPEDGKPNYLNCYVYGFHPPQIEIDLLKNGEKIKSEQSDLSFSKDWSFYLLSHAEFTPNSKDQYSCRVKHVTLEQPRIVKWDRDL
- procedureDetails: SPR Biacore, bFcRn on SA sensor, pH 6, 25 C
Entry rule: numbers only, all in nM.

-- ask Kd for bIgG2a_M437A mAb (antibody, part only; not given: variable domains, not shown: another chain or arm of the molecule) constant: ASTTAPKVYPLTSCCGDKSSSRVTLGCLVSSYMPEPVTVTWNSGALKSGVHTFPAVLQSSGLYSLSSMVTVPGSSSGQTFTCNVAHPASSTKVDKAVGVSSDCSKPNNQHCVREPSVFIFPPKPKDTLMITGTPEVTCVVVNVGHDNPEVQFSWFVDDVEVHTARTKPREEQFNSTYRVVSALPIQHQDWTGGKEFKCKVNIKGLSASIVRIISRSKGPAREPQVYVLDPPKEELSKSTVSVTCMVIGFYPEDVDVEWQRDRQTESEDKYRTTPPQLDADRSYFLYSKLRVDRNSWQRGDTYTCVVMHEALHNHYAQKSTSKSAGK ?
-- reply 0.59

-- ask Kd for bIgG3a_R433H mutant mAb (antibody, part only; not given: variable domains, not shown: another chain or arm of the molecule) constant: ASTTAPKVYPLASSCGDTSSSTVTLGCLVSSYMPEPVTVTWNSGALKSGVHTFPAVRQSSGLYSLSSMVTVPASSSETQTFTCNVAHPASSTKVDKAVTARRPVPTTPKTTIPPGKPTTPKSEVEKTPCQCSKCPEPLGGLSVFIFPPKPKDTLTISGTPEVTCVVVDVGQDDPEVQFSWFVDDVEVHTARTKPREEQFNSTYRVVSALRIQHQDWLQGKEFKCKVNNKGLPAPIVRTISRTKGQAREPQVYVLAPPREELSKSTLSLTCLITGFYPEEIDVEWQRNGQPESEDKYHTTAPQLDADGSYFLYSKLRVNKSSWQEGDHYTCAVMHEALHNHYKEKSISRSPGK ?
-- reply 9.14

-- ask Kd for bIgG1a mAb (antibody, part only; not given: variable domains, not shown: another chain or arm of the molecule) constant: ASTTAPKVYPLSSCCGDKSSSTVTLGCLVSSYMPEPVTVTWNSGALKSGVHTFPAVLQSSGLYSLSSMVTVPGSTSGTQTFTCNVAHPASSTKVDKAVDPRCKTTCDCCPPPELPGGPSVFIFPPKPKDTLTISGTPEVTCVVVDVGHDDPEVKFSWFVDDVEVNTATTKPREEQFNSTYRVVSALRIQHQDWTGGKEFKCKVHNEGLPAPIVRTISRTKGPAREPQVYVLAPPQEELSKSTVSLTCMVTSFYPDYIAVEWQRNGQPESEDKYGTTPPQLDADGSYFLYSRLRVDRNSWQEGDTYTCVVMHEALHNHYTQKSTSKSAGK ?
-- reply 31.4

-- ask Kd for bIgG2a_L432A_N434A_M437A mAb (antibody, part only; not given: variable domains, not shown: another chain or arm of the molecule) constant: ASTTAPKVYPLTSCCGDKSSSRVTLGCLVSSYMPEPVTVTWNSGALKSGVHTFPAVLQSSGLYSLSSMVTVPGSSSGQTFTCNVAHPASSTKVDKAVGVSSDCSKPNNQHCVREPSVFIFPPKPKDTLMITGTPEVTCVVVNVGHDNPEVQFSWFVDDVEVHTARTKPREEQFNSTYRVVSALPIQHQDWTGGKEFKCKVNIKGLSASIVRIISRSKGPAREPQVYVLDPPKEELSKSTVSVTCMVIGFYPEDVDVEWQRDRQTESEDKYRTTPPQLDADRSYFLYSKLRVDRNSWQRGDTYTCVVMHEAAHAHYAQKSTSKSAGK ?
-- reply 6.96
